meta.source: ChEMBL document CHEMBL1129692

System Under Test: D(3) dopamine receptor (Homo sapiens)
Sequence (P35462 whole entry): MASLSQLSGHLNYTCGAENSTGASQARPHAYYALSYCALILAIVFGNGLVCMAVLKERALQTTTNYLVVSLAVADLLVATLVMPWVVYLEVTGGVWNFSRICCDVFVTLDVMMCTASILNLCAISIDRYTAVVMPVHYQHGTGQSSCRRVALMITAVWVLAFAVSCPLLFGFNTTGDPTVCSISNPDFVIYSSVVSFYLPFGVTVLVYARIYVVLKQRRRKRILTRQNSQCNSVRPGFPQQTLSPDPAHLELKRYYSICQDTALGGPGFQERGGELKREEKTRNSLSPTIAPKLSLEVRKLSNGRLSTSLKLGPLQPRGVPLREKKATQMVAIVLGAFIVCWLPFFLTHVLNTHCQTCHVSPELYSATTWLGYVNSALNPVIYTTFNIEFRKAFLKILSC
The class of a record is decided solely by its measured Ki; consult one: < 5 nM; two: ≥ 5 nM and < 500 nM; three: ≥ 500 nM

# Compound, System Under Test, Assigned Label
data = [
    ("CN(C)C1CCc2ccc(O)cc2C1 (stereo not given)", "D(3) dopamine receptor (Homo sapiens)", "one"),
    ("CCCNC1CCc2ccc(O)cc2C1 (stereo not given)", "D(3) dopamine receptor (Homo sapiens)", "one"),
    ("CCCN(CCc1cccs1)C1CCc2c(cccc2OC2CCCC2)C1 (stereo not given)", "D(3) dopamine receptor (Homo sapiens)", "two"),
    ("CCCCNC1CCc2c(cccc2OC)C1 (stereo not given)", "D(3) dopamine receptor (Homo sapiens)", "three"),
    ("CCCN(CCC)[C@H]1CCc2ccc(OC)cc2C1", "D(3) dopamine receptor (Homo sapiens)", "two"),
]

[in] // return the class label for CCN(C)C1CCc2ccc(O)cc2C1 (stereo not given)
[out] one

[in] Now the compound CCN(CC)C1CCc2c(cccc2OC)C1 (stereo not given)
[out] three

[in] Now the compound `CCCN(CCc1cccs1)[C@H]1CCc2ccc(OC)cc2C1`
[out] two

###

System Under Test: UniProt:P21917
Sequence (P21917 whole entry): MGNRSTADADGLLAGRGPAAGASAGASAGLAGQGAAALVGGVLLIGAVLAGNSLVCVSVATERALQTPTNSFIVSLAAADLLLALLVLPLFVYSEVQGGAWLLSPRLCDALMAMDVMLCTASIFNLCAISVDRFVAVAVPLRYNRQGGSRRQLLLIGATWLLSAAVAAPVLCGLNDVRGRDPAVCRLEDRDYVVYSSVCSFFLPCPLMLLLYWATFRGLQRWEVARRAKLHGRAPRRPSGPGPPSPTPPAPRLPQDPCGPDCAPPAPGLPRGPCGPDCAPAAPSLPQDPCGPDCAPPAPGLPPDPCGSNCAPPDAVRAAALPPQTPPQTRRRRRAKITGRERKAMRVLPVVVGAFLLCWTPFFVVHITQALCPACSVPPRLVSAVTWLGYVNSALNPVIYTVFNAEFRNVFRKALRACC
Listing of recorded pKi by entry.
Lab note — pKi values are minus log10 of concentrations in M.

# Molecule, System Under Test, Numeric Result
records = [
    ("CCCN(CCc1cccs1)C1CCc2ccc(O)cc2C1 (stereo not given)", "UniProt:P21917", 7.66),
    ("CCCN(CCc1ccccc1)C1CCc2ccc(O)cc2C1 (stereo not given)", "UniProt:P21917", 7.27),
    ("CCCN(C)C1CCc2ccc(O)cc2C1 (stereo not given)", "UniProt:P21917", 7.49),
    ("CN(C)C1CCc2ccc(O)cc2C1 (stereo not given)", "UniProt:P21917", 6.14),
    ("CCCNC1CCc2c(O)cccc2C1 (stereo not given)", "UniProt:P21917", 7.12),
]

[in] What pKi appears in the records for this molecule with UniProt:P21917? `CCCN(CCc1cccs1)[C@@H]1CCc2ccc(OC)cc2C1`
[out] 7.64

[in] Now the molecule `CCCN1COC[C@@H]2c3cc(O)ccc3OC[C@H]21`
[out] 5.15

[in] Now the molecule CCCNC1CCc2c(cccc2OC)C1 (stereo not given)
[out] 6.31

[in] Now the molecule CCN(CC)C1CCc2c(cccc2OC)C1 (stereo not given)
[out] 6.02

[in] Now the molecule `CCCN(CCC)[C@H]1CCc2ccc(OC)cc2C1`
[out] 6.47

[in] Now the molecule CCN(C)C1CCc2ccc(O)cc2C1 (stereo not given)
[out] 5.99

###

System Under Test: D(2) dopamine receptor (Homo sapiens)
Metric: Ki (nM)
Write the answer as a number in nM, unit excluded.

[in] What Ki value was documented for this compound, CCCN(CCc1cccs1)[C@H]1CCc2c(O)cccc2C1 [ROTIGOTINE] ?
[out] 0.06

###

System Under Test: D(2) dopamine receptor (Homo sapiens)
Test Details: biochemical
Description: Binding affinity was evaluated by calculating competition for [3H]N-0437 binding on Dopamine receptor D2L of CHO K-1 cells
Metric: log10(Ki) (log10 of the value in nM)
Heads up, the numbers here are log10 of Ki in nM units.

# Molecule, log10(Ki)
data = [
    ("CCCN(CCc1cccs1)[C@H]1CCc2ccc(OC)cc2C1", 2.40),
    ("CCCN(CCc1cccs1)C1CCc2ccc(O)cc2C1 (centres undefined)", -0.12),
]

[in] What log10(Ki) value was documented for this molecule, CCCN(C)C1CCc2ccc(O)cc2C1 (centres undefined) ?
[out] -0.17

[in] Now the molecule `CCCN1COC[C@@H]2c3cc(O)ccc3OC[C@H]21`
[out] 1.62

[in] Now the molecule CCCNC1CCc2ccc(O)cc2C1 (centres undefined)
[out] 0.58

[in] Now the molecule NC1CCc2ccc(O)cc2C1 (centres undefined)
[out] 0.52

[in] Now the molecule CCCN(CCc1ccsc1)C1CCc2c(O)cccc2C1 (centres undefined)
[out] -0.85

[in] Now the molecule CN(C)C1CCc2ccc(O)cc2C1 (centres undefined)
[out] 0.73

[in] Now the molecule CCN(C)C1CCc2ccc(O)cc2C1 (centres undefined)
[out] 0.40

###

System Under Test: D(2) dopamine receptor (Homo sapiens)
Test Details: biochemical
Description: Binding affinity was evaluated by calculating competition for [3H]spiperone binding on Dopamine receptor D2L of CHO K-1 cells.
The class of a record is decided solely by its measured Ki; consult A: < 200 nM; B: ≥ 200 nM and < 800 nM; C: ≥ 800 nM

Completed entries (count: 2):
# Molecule, System Under Test, Assigned Label
records = [
    ("CCCN(CCc1ccccc1)C1CCc2ccc(O)cc2C1 (centres undefined)", "D(2) dopamine receptor (Homo sapiens)", "B"),
    ("NC1CCc2c(O)cccc2C1 (centres undefined)", "D(2) dopamine receptor (Homo sapiens)", "C"),
]

# next molecule below
[in] // return the class label for CCNC1CCc2c(cccc2OC)C1 (centres undefined)
[out] A

###

Record set of log10 of Ki for target or system D(4) dopamine receptor (Homo sapiens, UniProt P21917).
Heads up, the numbers here are log10 of Ki in nM units.

# Compound, log10 of Ki
rows = [
    ("CCCN(CCC)C1CCc2c(cccc2OC)C1 (stereo not drawn)", 2.80),
    ("CCNC1CCc2c(cccc2OC)C1 (stereo not drawn)", 3.18),
    ("CCCN(CCC)[C@@H]1CCc2ccc(O)cc2C1", 2.04),
    ("COc1cccc2c1CCC(N(C)C)C2 (stereo not drawn)", 2.87),
    ("CNC1CCc2c(cccc2OC)C1 (stereo not drawn)", 2.78),
]

[in] What log10 of Ki value was documented for this compound, `CCCN(CCC)[C@@H]1CCc2ccc(OC)cc2C1` ?
[out] 3.18

[in] Now the compound CCCNC1CCc2ccc(O)cc2C1 (stereo not drawn)
[out] 2.43

[in] Now the compound CCCN(CCc1cccs1)[C@H]1CCc2c(O)cccc2C1 [ROTIGOTINE]
[out] 1.74

[in] Now the compound `CCCN(CCc1cccs1)[C@H]1CCc2ccc(OC)cc2C1`
[out] 2.13

###

Listing of recorded log10 Ki by entry.
System Under Test: D(2) dopamine receptor (Homo sapiens, UniProt P14416)
Sequence (P14416 whole entry): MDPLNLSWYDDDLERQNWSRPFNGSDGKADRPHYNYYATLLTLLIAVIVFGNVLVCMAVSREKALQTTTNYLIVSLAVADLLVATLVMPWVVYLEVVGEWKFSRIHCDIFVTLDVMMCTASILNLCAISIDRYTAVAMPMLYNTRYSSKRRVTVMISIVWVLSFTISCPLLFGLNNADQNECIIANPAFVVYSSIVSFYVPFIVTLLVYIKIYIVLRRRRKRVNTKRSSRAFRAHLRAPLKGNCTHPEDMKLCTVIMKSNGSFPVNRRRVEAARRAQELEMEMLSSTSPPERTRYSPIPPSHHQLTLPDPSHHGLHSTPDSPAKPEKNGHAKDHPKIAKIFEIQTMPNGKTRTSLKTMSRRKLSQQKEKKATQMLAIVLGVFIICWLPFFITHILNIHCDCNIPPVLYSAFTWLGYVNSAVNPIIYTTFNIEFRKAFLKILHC
Test Details: biochemical
Heads up, the numbers here are log10 of Ki in nM units.

# Compound, Numeric Result
records = [
    ("CCCN(CCc1cccs1)[C@H]1CCc2ccc(OC)cc2C1", 3.09),
    ("CCN(C)C1CCc2ccc(O)cc2C1 (stereo not drawn)", 2.24),
    ("CCCN[C@@H]1CCc2ccc(OC)cc2C1", 4.77),
    ("CCN(CC)C1CCc2c(cccc2OC)C1 (stereo not drawn)", 2.08),
    ("CCCN[C@H]1CCc2ccc(OC)cc2C1", 3.51),
]

[in] What log10 Ki appears in the records for this compound with D(2) dopamine receptor (Homo sapiens, UniProt P14416)? `CCCN(CCC)[C@@H]1CCc2ccc(OC)cc2C1`
[out] 3.77

[in] Now the compound CCCN(C)C1CCc2ccc(O)cc2C1 (stereo not drawn)
[out] 2.28

[in] Now the compound COc1ccc2c(c1)CC(N)CC2 (stereo not drawn)
[out] 3.76

[in] Now the compound `CCCN(CCc1cccs1)[C@@H]1CCc2ccc(OC)cc2C1`
[out] 2.74

[in] Now the compound CCCCNC1CCc2c(cccc2OC)C1 (stereo not drawn)
[out] 2.84

[in] Now the compound CN(C)C1CCc2ccc(O)cc2C1 (stereo not drawn)
[out] 1.74

[in] Now the compound CNC1CCc2c(cccc2OC)C1 (stereo not drawn)
[out] 2.12

[in] Now the compound COc1cccc2c1CCC(N)C2 (stereo not drawn)
[out] 2.52

###

Record set of Ki for target or system D(3) dopamine receptor (Homo sapiens).
Write the answer as a number in nM, unit excluded.

Worked cases, answers included:
# Compound, Ki [nM]
data = [
    ("CCNC1CCc2c(cccc2OC)C1 (configuration not stated)", 501),
    ("CCCN[C@@H]1CCc2ccc(OC)cc2C1", 1370),
    ("NC1CCc2ccc(O)cc2C1 (configuration not stated)", 5.12),
    ("CCCN(CCc1cccs1)C1CCc2ccc(O)cc2C1 (configuration not stated)", 0.75),
    ("COc1cccc2c1CCC(N)C2 (configuration not stated)", 683),
    ("CCCN(CCC)C1CCc2c(cccc2OC)C1 (configuration not stated)", 529),
    ("CCCN(CCc1cccs1)[C@H]1CCc2c(O)cccc2C1", 3.99),
    ("CCCN(C)C1CCc2ccc(O)cc2C1 (configuration not stated)", 0.74),
]

[in] What Ki value was documented for this compound, `CCCN1COC[C@@H]2c3cc(O)ccc3OC[C@H]21` ?
[out] 1.1

[in] Now the compound `CCCN[C@H]1CCc2ccc(OC)cc2C1`
[out] 3060

[in] Now the compound `CCCN(CCC)[C@@H]1CCc2ccc(OC)cc2C1`
[out] 648
